Below, each of the compounds is paired with its reported IC50 value.
biological target: Ba/F3 cells with EGFR exon 20 ASV Ins V769_D770 (Homo sapiens, UniProt P00533, INS769ASV); experiment: EGFR activity: Ba/F3 cell viability (CellTiter-Glo, 72 h), EGFR exon 20 ASV insertion; details: EGFR exon 20 ASV Ins V769_D770, cell viability, read-out: BaF3 ASV IC50
Sequence (P00533 with tags, fused parts or gaps INS769ASV): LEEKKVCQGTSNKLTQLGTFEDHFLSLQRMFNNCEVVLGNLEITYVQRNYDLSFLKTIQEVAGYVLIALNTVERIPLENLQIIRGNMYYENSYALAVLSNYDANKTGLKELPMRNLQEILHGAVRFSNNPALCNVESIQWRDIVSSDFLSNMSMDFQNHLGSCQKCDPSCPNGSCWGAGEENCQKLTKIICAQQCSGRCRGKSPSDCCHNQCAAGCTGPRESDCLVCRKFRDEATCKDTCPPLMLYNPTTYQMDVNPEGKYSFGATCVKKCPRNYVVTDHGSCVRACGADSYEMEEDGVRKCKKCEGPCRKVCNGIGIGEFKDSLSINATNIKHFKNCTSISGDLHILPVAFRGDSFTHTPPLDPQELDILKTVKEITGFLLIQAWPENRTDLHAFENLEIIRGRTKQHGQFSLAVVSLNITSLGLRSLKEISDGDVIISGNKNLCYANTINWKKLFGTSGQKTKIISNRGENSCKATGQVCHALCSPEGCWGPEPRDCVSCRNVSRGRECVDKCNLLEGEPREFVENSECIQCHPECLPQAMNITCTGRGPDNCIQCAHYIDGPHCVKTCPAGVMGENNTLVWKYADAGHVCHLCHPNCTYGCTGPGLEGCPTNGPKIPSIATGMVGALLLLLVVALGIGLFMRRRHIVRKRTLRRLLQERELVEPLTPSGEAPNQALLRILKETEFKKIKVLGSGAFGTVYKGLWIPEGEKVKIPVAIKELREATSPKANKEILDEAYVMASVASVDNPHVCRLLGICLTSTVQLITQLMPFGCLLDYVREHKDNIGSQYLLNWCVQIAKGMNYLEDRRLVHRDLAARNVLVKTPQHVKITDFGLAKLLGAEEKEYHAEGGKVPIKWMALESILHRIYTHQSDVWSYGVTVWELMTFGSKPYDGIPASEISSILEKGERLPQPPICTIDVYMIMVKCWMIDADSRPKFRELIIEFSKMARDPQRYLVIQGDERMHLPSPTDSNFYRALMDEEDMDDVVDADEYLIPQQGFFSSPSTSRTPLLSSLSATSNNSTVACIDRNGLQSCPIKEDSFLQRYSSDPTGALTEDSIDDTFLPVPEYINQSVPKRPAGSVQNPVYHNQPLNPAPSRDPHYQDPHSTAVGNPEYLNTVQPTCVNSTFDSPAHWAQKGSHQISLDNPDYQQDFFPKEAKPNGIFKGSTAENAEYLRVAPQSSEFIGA

Here's what some known entries look like.
1) C=CC(=O)N1CCCC[C@@H]1COc1cnccc1-c1[nH]c2c(c1Nc1cccc(F)c1C)C(=O)NCC2 ... 100 to 1000 nM
2) CCC(=O)N1CCC[C@H]1COc1cnccc1-c1[nH]c2c(c1Nc1cccc(Cl)c1OC)C(=O)NCC2 ... > 1000 nM
3) CCc1c(F)cccc1Nc1c(-c2ccncc2C#CC(C)(C)NC(=O)/C=C/CN(C)C)[nH]c2c1C(=O)NCC2 ... < 100 nM
4) COc1c(F)cccc1Nc1c(-c2ccncc2C#CC(C)(C)NC(=O)/C=C/CN2CC(F)C2)[nH]c2c1C(=O)NCC2 ... 100 to 1000 nM
5) CCC(=O)N1CCC[C@@H]1COc1cnccc1-c1[nH]c2c(c1Nc1cccc(Cl)c1OC)C(=O)NCC2 ... > 1000 nM

Notebook: pull reported IC50 for Ba/F3 cells with EGFR exon 20 ASV Ins V769_D770 (Homo sapiens, UniProt P00533, INS769ASV), entry "CC#CC(=O)N1CC[C@]1(C)COc1cnccc1-c1[nH]c2c(c1Nc1cccc(Cl)c1OC)C(=O)NCC2"
< 100 nM

Record lookup: for Ba/F3 cells with EGFR exon 20 ASV Ins V769_D770 (Homo sapiens, UniProt P00533, INS769ASV), what IC50 belongs to "Cc1c(F)cccc1Nc1c(-c2ccncc2C#CC(C)(C)C)[nH]c2c1C(=O)NCC2" ?
< 100 nM

* * *

target: Ba/F3 cells with EGFR WT (Homo sapiens); experiment: EGFR activity: Ba/F3 cell viability (CellTiter-Glo, 72 h), EGFR WT; conditions: read-out: BaF3 WT IC50
Sequence (P00533 25-1210): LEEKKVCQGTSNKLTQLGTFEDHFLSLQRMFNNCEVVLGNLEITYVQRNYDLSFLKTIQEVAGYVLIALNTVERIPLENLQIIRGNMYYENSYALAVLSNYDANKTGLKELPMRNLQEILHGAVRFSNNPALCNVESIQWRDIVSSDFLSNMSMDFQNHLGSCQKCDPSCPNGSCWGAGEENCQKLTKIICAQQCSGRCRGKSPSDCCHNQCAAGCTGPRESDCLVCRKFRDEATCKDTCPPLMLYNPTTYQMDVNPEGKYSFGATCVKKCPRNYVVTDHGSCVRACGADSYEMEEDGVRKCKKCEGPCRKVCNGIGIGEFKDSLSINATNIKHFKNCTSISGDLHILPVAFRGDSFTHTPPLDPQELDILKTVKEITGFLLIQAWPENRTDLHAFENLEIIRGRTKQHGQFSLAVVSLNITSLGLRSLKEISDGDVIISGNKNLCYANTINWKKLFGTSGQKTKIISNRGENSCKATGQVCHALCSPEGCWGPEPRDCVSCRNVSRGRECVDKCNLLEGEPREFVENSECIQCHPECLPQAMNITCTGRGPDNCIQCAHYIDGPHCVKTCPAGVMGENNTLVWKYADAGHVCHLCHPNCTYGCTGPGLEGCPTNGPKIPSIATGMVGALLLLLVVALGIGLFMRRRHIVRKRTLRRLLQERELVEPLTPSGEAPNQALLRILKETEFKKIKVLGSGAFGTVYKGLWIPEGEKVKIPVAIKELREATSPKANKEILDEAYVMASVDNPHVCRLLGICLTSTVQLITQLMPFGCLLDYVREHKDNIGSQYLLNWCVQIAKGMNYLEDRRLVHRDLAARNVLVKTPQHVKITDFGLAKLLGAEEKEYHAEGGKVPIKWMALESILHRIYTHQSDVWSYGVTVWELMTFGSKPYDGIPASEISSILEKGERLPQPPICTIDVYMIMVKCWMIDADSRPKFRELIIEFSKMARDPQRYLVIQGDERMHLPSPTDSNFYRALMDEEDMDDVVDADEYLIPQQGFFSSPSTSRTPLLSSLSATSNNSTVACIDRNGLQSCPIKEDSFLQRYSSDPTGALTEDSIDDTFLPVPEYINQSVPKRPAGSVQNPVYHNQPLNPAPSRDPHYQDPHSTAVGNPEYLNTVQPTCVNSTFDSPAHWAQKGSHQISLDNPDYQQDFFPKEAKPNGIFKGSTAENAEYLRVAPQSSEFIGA
// IC50 lookup, one value per entry

1) C=CC(=O)NC1(C#Cc2cnccc2-c2[nH]c3c(c2Nc2cccc(Cl)c2OC)C(=O)NCC3)CN(C)C1 [compound 410] ... > 1 µM
2) C=CC(=O)N1CCC[C@@H]1COc1cnccc1-c1[nH]c2c(c1Nc1cccc(Cl)c1OC)C(=O)NCC2 [Compound 138a] ... 0.1 to 1 µM
3) COc1c(F)cccc1Nc1c(-c2ccncc2C#CC(C)(C)NC(=O)/C=C/CN2CC(F)C2)[nH]c2c1C(=O)NCC2 [compound 463] ... > 1 µM
4) COc1c(F)cccc1Nc1c(-c2ccncc2C#C[C@]2(NC(=O)/C=C/CN(C)C)CCOC2)[nH]c2c1C(=O)NCC2 [compound 418] ... > 1 µM
5) C=CC(=O)NC1(C#Cc2cnccc2-c2[nH]c3c(c2Nc2cccc(F)c2OC)C(=O)NCC3)CCC1 [compound 262] ... 0.1 to 1 µM

Form field: reported IC50 of CC#CC(=O)N1CCC[C@]1(C)C#Cc1cnccc1-c1[nH]c2c(c1Nc1cc(F)cc(Cl)c1OC)C(=O)NCC2 [compound 431]
0.1 to 1 µM

Which IC50 reading was recorded for the compound C=C(F)C(=O)N1CC[C@@H]1COc1cnccc1-c1[nH]c2c(c1Nc1cccc(F)c1C)C(=O)NCC2 [compound 567] ?
0.1 to 1 µM
